Tested on: Leishmania amazonensis
Experiment: Inhibition of sterol biosynthesis in Leishmania mexicana amazonensis promastigotes assessed as reduction in exogenous cholesterol level at 3 uM after 96 hrs by gas-liquid chromatography
Assay type: functional
Parameters: scale not given: the % may be the effect or the level left
# maps each entry to its Activity
OBSERVED PROPERTY: Activity (%)

[[record]]
compound = "CC(C)OC(=O)c1ccc(C2=CN3CCC2CC3)cc1"
measured_result = 74.5

[[record]]
compound = "OC1(c2ccc(-c3ccccc3)cc2)CN2CCC1CC2 (configuration not stated)"
measured_result = 39.6

[[record]]
compound = "C(=C1/CN2CCC1CC2)/c1ccc2ccccc2c1"
measured_result = 57.8

[[record]]
compound = "CCOC(=O)Cc1ccc(C#CC2(O)CN3CCC2CC3)cc1 (configuration not stated)"
measured_result = 28.4

[[record]]
compound = "C1=C(c2cc3ccccc3s2)C2CCN1CC2"
measured_result = 62.3

[[record]]
compound = "C1=C(c2ccc3ccccc3c2)C2CCN1CC2"
measured_result = 35.9

[[record]]
compound = "OC[C@H]1CC2CCN1C[C@@H]2C#Cc1ccc(OCc2ccccc2)cc1 (some centres not stated)"
measured_result = 21.2

[[record]]
compound = "c1ccc2cc(CC3CN4CCC3CC4)ccc2c1 (configuration not stated)"
measured_result = 26.4

[[record]]
compound = "OC[C@@H]1CC2CCN1C[C@@H]2C#Cc1ccc(OCc2ccccc2)cc1 (some centres not stated)"
measured_result = 61.4

[[record]]
compound = "CCOC(=O)c1ccc(C#CC2(O)CN3CCC2CC3)cc1 (configuration not stated)"
measured_result = 35.9

[[record]]
compound = "CC(C)(C)[Si](C)(C)Oc1ccc(C2=CN3CCC2CC3)cc1"
measured_result = 55.4

[[record]]
compound = "OC[C@@H]1CC2CCN1C[C@@H]2C#Cc1ccc(-c2ccccc2)cc1 (some centres not stated)"
measured_result = 25.2


====

Target: Squalene synthase (Homo sapiens, UniProt P37268)
Sequence (P37268 whole entry): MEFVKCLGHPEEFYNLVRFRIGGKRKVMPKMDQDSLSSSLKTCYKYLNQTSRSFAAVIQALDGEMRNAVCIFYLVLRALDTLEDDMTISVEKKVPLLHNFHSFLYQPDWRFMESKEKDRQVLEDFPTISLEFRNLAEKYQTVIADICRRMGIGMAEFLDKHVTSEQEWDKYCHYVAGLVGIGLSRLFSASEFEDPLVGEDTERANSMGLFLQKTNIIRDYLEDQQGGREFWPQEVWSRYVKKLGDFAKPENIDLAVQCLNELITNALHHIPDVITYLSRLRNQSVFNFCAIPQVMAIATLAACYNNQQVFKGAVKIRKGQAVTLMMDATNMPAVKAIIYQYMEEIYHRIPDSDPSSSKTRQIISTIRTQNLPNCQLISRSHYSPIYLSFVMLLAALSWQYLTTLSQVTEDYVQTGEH
Test: Inhibition of human recombinant squalene synthase expressed in Escherichia coli BL21(DE3 pLysS) by liquid scintillation counter
# maps each entry to its IC50
OBSERVED PROPERTY: IC50

[[record]]
molecule = "CCOC(=O)Cc1ccc(C#CC2(O)CN3CCC2CC3)cc1 (stereo not drawn)"
system_tested = "Squalene synthase (Homo sapiens, UniProt P37268)"
observed_property = "IC50"
measured_result = "660 nM"

[[record]]
molecule = "C1=C(c2ccc(OCc3ccccc3)cc2)C2CCN1CC2"
system_tested = "Squalene synthase (Homo sapiens, UniProt P37268)"
observed_property = "IC50"
measured_result = "250 nM"

[[record]]
molecule = "COc1ccc2cc(C3=CN4CCC3CC4)ccc2c1"
system_tested = "Squalene synthase (Homo sapiens, UniProt P37268)"
observed_property = "IC50"
measured_result = "2800 nM"


====

Test system: Leishmania amazonensis
Test: Inhibition of sterol biosynthesis in Leishmania mexicana amazonensis promastigotes assessed as reduction in exogenous cholesterol level at 10 uM after 96 hrs by gas-liquid chromatography
Assay type: functional
Parameters: scale not given: the % may be the effect or the level left
OBSERVED PROPERTY: Activity (%)

[[record]]
compound = "CCOC(=O)Cc1ccc(C#CC2(O)CN3CCC2CC3)cc1 (centres undefined)"
system_tested = "Leishmania amazonensis"
unit_abbrev = "%"
comparator = "="
measured_result = 62.3

[[record]]
compound = "OC[C@@H]1CC2CCN1C[C@@H]2C#Cc1ccccc1 (some centres undefined)"
system_tested = "Leishmania amazonensis"
unit_abbrev = "%"
comparator = "="
measured_result = 17.9

[[record]]
compound = "Cc1cc(C)cc(C#CC2(O)CN3CCC2CC3)c1 (centres undefined)"
system_tested = "Leishmania amazonensis"
unit_abbrev = "%"
comparator = "="
measured_result = 48.2

[[record]]
compound = "OC[C@@H]1CC2CCN1C[C@@H]2C#Cc1ccc(OCc2ccccc2)cc1 (some centres undefined)"
system_tested = "Leishmania amazonensis"
unit_abbrev = "%"
comparator = ">"
measured_result = 99

[[record]]
compound = "C(=C1/CN2CCC1CC2)/c1ccccc1"
system_tested = "Leishmania amazonensis"
unit_abbrev = "%"
comparator = "="
measured_result = 10.6

[[record]]
compound = "O=C(O)c1ccc(C#CC2(O)CN3CCC2CC3)cc1 (centres undefined)"
system_tested = "Leishmania amazonensis"
unit_abbrev = "%"
comparator = "="
measured_result = 21.9

[[record]]
compound = "OC[C@H]1CC2CCN1C[C@@H]2C#Cc1ccc(-c2ccccc2)cc1 (some centres undefined)"
system_tested = "Leishmania amazonensis"
unit_abbrev = "%"
comparator = ">"
measured_result = 99

[[record]]
compound = "COc1ccc(C#CC2(O)CN3CCC2CC3)cc1 (centres undefined)"
system_tested = "Leishmania amazonensis"
unit_abbrev = "%"
comparator = "="
measured_result = 19.8

[[record]]
compound = "c1ccc(CC2CN3CCC2CC3)cc1 (centres undefined)"
system_tested = "Leishmania amazonensis"
unit_abbrev = "%"
comparator = "="
measured_result = 14.9

[[record]]
compound = "C(=C1CN2CCC1CC2)c1ccc(C2OCCO2)cc1"
system_tested = "Leishmania amazonensis"
unit_abbrev = "%"
comparator = "="
measured_result = 14.1

[[record]]
compound = "OC[C@@H]1CC2CCN1C[C@@H]2C#Cc1cnc2ccccc2c1 (some centres undefined)"
system_tested = "Leishmania amazonensis"
unit_abbrev = "%"
comparator = "="
measured_result = 27.5

[[record]]
compound = "OC[C@@H]1CC2CCN1C[C@@H]2C#Cc1ccc2ccccc2c1 (some centres undefined)"
system_tested = "Leishmania amazonensis"
unit_abbrev = "%"
comparator = "="
measured_result = 15.4

[[record]]
compound = "Cc1ccc(N)cc1C#CC1(O)CN2CCC1CC2 (centres undefined)"
system_tested = "Leishmania amazonensis"
unit_abbrev = "%"
comparator = "="
measured_result = 20.7

[[record]]
compound = "OC[C@H]1CC2CCN1C[C@@H]2C#Cc1ccc(OCc2ccccc2)cc1 (some centres undefined)"
system_tested = "Leishmania amazonensis"
unit_abbrev = "%"
comparator = ">"
measured_result = 99

[[record]]
compound = "C1=C(c2ccc3ccccc3c2)C2CCN1CC2"
system_tested = "Leishmania amazonensis"
unit_abbrev = "%"
comparator = "="
measured_result = 33.8

[[record]]
compound = "C1=C(c2cc3ccccc3o2)C2CCN1CC2"
system_tested = "Leishmania amazonensis"
unit_abbrev = "%"
comparator = "="
measured_result = 12.2

[[record]]
compound = "C(=C1/CN2CCC1CC2)/c1ccc(C2OCCO2)cc1"
system_tested = "Leishmania amazonensis"
unit_abbrev = "%"
comparator = "="
measured_result = 25.4

[[record]]
compound = "O=C(O)c1cc(C#CC2(O)CN3CCC2CC3)ccc1O (centres undefined)"
system_tested = "Leishmania amazonensis"
unit_abbrev = "%"
comparator = "="
measured_result = 20.4

[[record]]
compound = "OC1(C#Cc2cccnc2)CN2CCC1CC2 (centres undefined)"
system_tested = "Leishmania amazonensis"
unit_abbrev = "%"
comparator = "="
measured_result = 12.9

[[record]]
compound = "CC(=O)c1ccc(C#CC2(O)CN3CCC2CC3)s1 (centres undefined)"
system_tested = "Leishmania amazonensis"
unit_abbrev = "%"
comparator = "="
measured_result = 22.3

[[record]]
compound = "O=Cc1ccc(/C=C2\\CN3CCC2CC3)cc1"
system_tested = "Leishmania amazonensis"
unit_abbrev = "%"
comparator = "="
measured_result = 11.2

[[record]]
compound = "C(=C1\\CN2CCC1CC2)/c1ccc(C2OCCO2)cc1"
system_tested = "Leishmania amazonensis"
unit_abbrev = "%"
comparator = "="
measured_result = 42.1

[[record]]
compound = "C1=C(c2cnc3ccccc3c2)C2CCN1CC2"
system_tested = "Leishmania amazonensis"
unit_abbrev = "%"
comparator = "="
measured_result = 18.2

[[record]]
compound = "CCOc1ccc(C#CC2(O)CN3CCC2CC3)cc1 (centres undefined)"
system_tested = "Leishmania amazonensis"
unit_abbrev = "%"
comparator = "="
measured_result = 30

[[record]]
compound = "CCOC(=O)c1ccc(C#C[C@H]2CN3CCC2C[C@H]3CO)cc1 (some centres undefined)"
system_tested = "Leishmania amazonensis"
unit_abbrev = "%"
comparator = "="
measured_result = 18.7

[[record]]
compound = "CCOC(=O)Cc1ccc(C#C[C@H]2CN3CCC2C[C@@H]3CO)cc1 (some centres undefined)"
system_tested = "Leishmania amazonensis"
unit_abbrev = "%"
comparator = "="
measured_result = 14.6

[[record]]
compound = "Oc1ccc(C#CC2(O)CN3CCC2CC3)cc1 (centres undefined)"
system_tested = "Leishmania amazonensis"
unit_abbrev = "%"
comparator = "="
measured_result = 20.1

[[record]]
compound = "OC1(C#Cc2cnccn2)CN2CCC1CC2 (centres undefined)"
system_tested = "Leishmania amazonensis"
unit_abbrev = "%"
comparator = "="
measured_result = 33.8

[[record]]
compound = "OC[C@@H]1CC2CCN1C[C@@H]2C#Cc1ccc(-c2ccccc2)cc1 (some centres undefined)"
system_tested = "Leishmania amazonensis"
unit_abbrev = "%"
comparator = ">"
measured_result = 99

[[record]]
compound = "COc1ccc(COc2ccc(C#CC3(O)CN4CCC3CC4)cc2)cc1OC (centres undefined)"
system_tested = "Leishmania amazonensis"
unit_abbrev = "%"
comparator = "="
measured_result = 44.6

[[record]]
compound = "OC[C@H]1CC2CCN1C[C@@H]2C#Cc1ccccc1 (some centres undefined)"
system_tested = "Leishmania amazonensis"
unit_abbrev = "%"
comparator = "="
measured_result = 13.1

[[record]]
compound = "Nc1ccc(C#CC2(O)CN3CCC2CC3)cn1 (centres undefined)"
system_tested = "Leishmania amazonensis"
unit_abbrev = "%"
comparator = "="
measured_result = 13.2

[[record]]
compound = "OC1(C#Cc2ccc(Cl)nc2)CN2CCC1CC2 (centres undefined)"
system_tested = "Leishmania amazonensis"
unit_abbrev = "%"
comparator = "="
measured_result = 20.1

[[record]]
compound = "OC[C@H]1CC2CCN1C[C@@H]2C#Cc1ccc2ccccc2c1 (some centres undefined)"
system_tested = "Leishmania amazonensis"
unit_abbrev = "%"
comparator = "="
measured_result = 23.1

[[record]]
compound = "OC[C@H]1CC2CCN1C[C@@H]2C#Cc1cnc2ccccc2c1 (some centres undefined)"
system_tested = "Leishmania amazonensis"
unit_abbrev = "%"
comparator = "="
measured_result = 18.7

[[record]]
compound = "CCOC(=O)Cc1ccc(C#C[C@H]2CN3CCC2C[C@H]3CO)cc1 (some centres undefined)"
system_tested = "Leishmania amazonensis"
unit_abbrev = "%"
comparator = "="
measured_result = 25.2

[[record]]
compound = "CCOC(=O)c1ccc(C#C[C@H]2CN3CCC2C[C@@H]3CO)cc1 (some centres undefined)"
system_tested = "Leishmania amazonensis"
unit_abbrev = "%"
comparator = "="
measured_result = 23.6

[[record]]
compound = "COC(=O)c1ccc(N)c(C#CC2(O)CN3CCC2CC3)c1 (centres undefined)"
system_tested = "Leishmania amazonensis"
unit_abbrev = "%"
comparator = "="
measured_result = 19.3

[[record]]
compound = "OC1(C#Cc2ccc3cc[nH]c3c2)CN2CCC1CC2 (centres undefined)"
system_tested = "Leishmania amazonensis"
unit_abbrev = "%"
comparator = "="
measured_result = 19.9

